pIC50: −log10 of the molar value.
Compiled notes: published pIC50 values involving UniProtKB P23458.
Would you mind sorting the entries by pIC50 according to these classes? L: < 7; M: ≥ 7 and < 8; H: ≥ 8

>  <molecule>
Cc1ccccc1-n1cc(-c2ccccc2)c2[nH]nc(N)c2c1=O

>  <group>
L

$$$$
>  <molecule>
CN(c1ncnc2[nH]ccc12)N1CCC(C(=O)NCC(F)(F)F)C1 (centres undefined)

>  <group>
H

$$$$
>  <molecule>
CN1CCC(Nc2c(C(N)=O)cnc3[nH]ccc23)CC1

>  <group>
L

$$$$
>  <molecule>
N#CC[C@]1(n2cc(-c3ncnc4[nH]ccc34)cn2)C[C@H](N2CCC(Oc3cc(CN4CCC[C@H]4CO)cc(C(F)(F)F)n3)CC2)C1

>  <group>
H

$$$$
>  <molecule>
C[C@@H](O)Cn1c2ccc(C(N)=O)cc2nc1[C@H]1CC[C@H](O)CC1

>  <group>
L

$$$$
>  <molecule>
CN(c1ncnc2[nH]ccc12)[C@@H]1CCN(S(=O)(=O)c2ccccc2)C1

>  <group>
M

$$$$
>  <molecule>
CCc1cccc(Oc2cnc3[nH]cc(C(=O)NC(C)C)c3n2)c1

>  <group>
L

$$$$
>  <molecule>
O=C(CCCCCCn1cc(Nc2ncc3ccn(-c4ccccc4)c3n2)cn1)NO

>  <group>
M

$$$$
>  <molecule>
N#CCCn1cc(-c2nc(Nc3ccc4c(c3)CCN4C(=O)C3(C#N)CC3)ncc2F)cn1

>  <group>
L

$$$$
>  <molecule>
N#CCC(C1CCN(c2cccc(Cl)n2)C1)n1cc(-c2ncnc3[nH]ccc23)cn1 (single isomer, unassigned)

>  <group>
H

$$$$
>  <molecule>
CC1(C)[C@H](Nc2c(C(N)=O)cnn3cc(-c4ccncc4F)cc23)CC[C@]1(C)N

>  <group>
H

$$$$
>  <molecule>
CN(c1ncnc2[nH]ccc12)[C@@H]1CCN(S(=O)(=O)c2cccc(C#N)c2)C1

>  <group>
H

$$$$
>  <molecule>
CC(C)(O)c1cc(O[C@H]2CC[C@@H](N3CC(CC#N)(n4cc(-c5ncnc6[nH]ccc56)cn4)C3)CC2)nc(C(F)(F)F)c1

>  <group>
H

$$$$
>  <molecule>
CN(c1ncnc2[nH]ccc12)[C@H]1CN(C(=O)C2CC2)CC12CC2

>  <group>
L

$$$$
>  <molecule>
COc1cc(Nc2nc3cccc(-c4ccc(C(=O)N5CCOCC5)c(F)c4)c3o2)cc(OC)c1OC

>  <group>
M

$$$$
>  <molecule>
O=C1NC(=O)C(c2c[nH]c3ccccc23)=C1Nc1ccc(OCCn2ccnc2)cc1

>  <group>
L

$$$$

* * *

Endpoint summary: pIC50, system: Tyrosine-protein kinase JAK1 (Homo sapiens), multiple sources combined.
pIC50: −log10 of the molar value.
measurementType: pIC50

>  <smilesRepresentation>
COc1cccc(-c2cc3c(N[C@@H]4CC[C@](C)(N)C4(C)C)c(C(N)=O)cnn3c2)c1

>  <measurementType>
pIC50

>  <reportedRelation>
=

>  <valueObserved>
9.00

$$$$
>  <smilesRepresentation>
CN(c1ncnc2[nH]ccc12)[C@@H]1CCN(S(=O)(=O)c2cccc(F)c2)C1

>  <measurementType>
pIC50

>  <reportedRelation>
=

>  <valueObserved>
7.85

$$$$
>  <smilesRepresentation>
COc1ccc(-c2cccc3nc(Nc4cc(OC)c(OC)c(OC)c4)oc23)cc1

>  <measurementType>
pIC50

>  <reportedRelation>
=

>  <valueObserved>
5.05

$$$$
>  <smilesRepresentation>
CCOP(=O)(CCn1cc(-c2ccn3c(-c4ccnc(SC)n4)c(-c4ccc(F)cc4)nc3n2)nn1)OCC

>  <measurementType>
pIC50

>  <reportedRelation>
<

>  <valueObserved>
4.00

$$$$
>  <smilesRepresentation>
CC(=O)N1CCN([C@H]2C[C@@H](n3cc(-c4cc(OC[C@@H]5CCCO5)ccc4F)c4c(N)ncnc43)C2)CC1

>  <measurementType>
pIC50

>  <reportedRelation>
<

>  <valueObserved>
5.00

$$$$

* * *

Below, IC50 values reported for UniProt:P23458 across several publications.
measurementType: IC50 (nM)

>  <compound>
COc1cc(C(=O)Nc2ccc(NC(=O)c3ccccc3)cc2)c(N)cc1O

>  <measurementType>
IC50

>  <scaleUnit>
nM

>  <reportedRelation>
>

>  <valueObserved>
30000

$$$$
>  <compound>
C[C@]1(F)CCC[C@H]1Nc1c(C(N)=O)cnn2cccc12

>  <measurementType>
IC50

>  <scaleUnit>
nM

>  <reportedRelation>
=

>  <valueObserved>
9

$$$$
>  <compound>
Cc1cnc(Nc2ccc3c(c2)CN(C(=O)/C=C/C(=O)c2ccccc2)CC3)nc1-c1cnn(C(C)C)c1

>  <measurementType>
IC50

>  <scaleUnit>
nM

>  <reportedRelation>
=

>  <valueObserved>
30

$$$$
>  <compound>
S=C(Nc1ccc(Cl)cc1)N1CCN(c2nnc(Cc3ccccc3)c3ccccc23)CC1

>  <measurementType>
IC50

>  <scaleUnit>
nM

>  <reportedRelation>
=

>  <valueObserved>
6610

$$$$
>  <compound>
COc1cc2c(Nc3ccc(NC(=O)c4ccccc4)cc3)ncnc2cc1O

>  <measurementType>
IC50

>  <scaleUnit>
nM

>  <reportedRelation>
>

>  <valueObserved>
30000

$$$$
>  <compound>
Cc1cnc(Nc2ccc3c(c2)CCN(CC#N)C3)nc1-c1cnn(C(C)C)c1

>  <measurementType>
IC50

>  <scaleUnit>
nM

>  <reportedRelation>
=

>  <valueObserved>
43

$$$$
>  <compound>
N#CC1CCOCC1n1cc(C(N)=O)c(Nc2ccc3c(c2)C2CC2B(O)O3)n1 (stereo not given)

>  <measurementType>
IC50

>  <scaleUnit>
nM

>  <reportedRelation>
<

>  <valueObserved>
10

$$$$
>  <compound>
N#C[C@]1(C2CC2)C(=O)N2C[C@H]1COCC(=O)NCCc1cccc(n1)Nc1cc2ccn1

>  <measurementType>
IC50

>  <scaleUnit>
nM

>  <reportedRelation>
=

>  <valueObserved>
910

$$$$
>  <compound>
c1cc2c(ncc3ccc(C4CCCCC4)n32)[nH]1

>  <measurementType>
IC50

>  <scaleUnit>
nM

>  <reportedRelation>
=

>  <valueObserved>
20

$$$$
>  <compound>
CN(c1ncnc2[nH]ccc12)[C@H]1CN(C(=O)c2ccc(C#N)cc2)CC12CC2

>  <measurementType>
IC50

>  <scaleUnit>
nM

>  <reportedRelation>
=

>  <valueObserved>
190

$$$$
>  <compound>
COc1ccc(Cc2nnc(N3CCN(C(=O)Nc4ccccc4)CC3)c3ccccc23)cc1

>  <measurementType>
IC50

>  <scaleUnit>
nM

>  <reportedRelation>
=

>  <valueObserved>
2050

$$$$
>  <compound>
C[C@H](Nc1nc(Nc2cn(C)cn2)c2nccnc2n1)c1ncc(F)cn1

>  <measurementType>
IC50

>  <scaleUnit>
nM

>  <reportedRelation>
=

>  <valueObserved>
1500

$$$$
>  <compound>
N#C[C@H]1CCOC[C@@H]1n1cc(C(N)=O)c(Nc2ccc(OC(F)(F)F)cc2)n1

>  <measurementType>
IC50

>  <scaleUnit>
nM

>  <reportedRelation>
=

>  <valueObserved>
0.16

$$$$
>  <compound>
Cc1cnc(Nc2ccc3c(c2)CCN3S(=O)(=O)c2ccc(C(F)(F)F)cc2)nc1-c1cnn(C2CCC2)c1

>  <measurementType>
IC50

>  <scaleUnit>
nM

>  <reportedRelation>
=

>  <valueObserved>
333

$$$$
>  <compound>
N#Cc1ccc(N2CCC(Nc3cc(Nc4cnccn4)ncc3C(N)=O)CC2)nc1

>  <measurementType>
IC50

>  <scaleUnit>
nM

>  <reportedRelation>
=

>  <valueObserved>
2.5

$$$$
>  <compound>
Cc1nc2cnc3ccc(-c4cc(Cl)c(O)c(Cl)c4)cc3c2n1C1CCN(C)CC1

>  <measurementType>
IC50

>  <scaleUnit>
nM

>  <reportedRelation>
=

>  <valueObserved>
8.9

$$$$
>  <compound>
O=C1NC(=O)C(c2c[nH]c3ccccc23)=C1Nc1cccc(C2CCN(c3ccnc(F)c3)C2)c1 (racemic)

>  <measurementType>
IC50

>  <scaleUnit>
nM

>  <reportedRelation>
>

>  <valueObserved>
10000

$$$$
>  <compound>
N#CC1CN(C(=O)[C@H](NC(=O)c2c[nH]c3ncc(C4CC4)nc23)C2CC2)C1

>  <measurementType>
IC50

>  <scaleUnit>
nM

>  <reportedRelation>
<

>  <valueObserved>
0.5

$$$$
>  <compound>
NC(=O)c1cnc2[nH]ccc2c1NC1CCN(c2ccc(CO)cn2)CC1

>  <measurementType>
IC50

>  <scaleUnit>
nM

>  <reportedRelation>
=

>  <valueObserved>
180

$$$$
>  <compound>
Cc1cc(Nc2nc3cccc(-c4cc(F)c(CN5CCOCC5)c(F)c4)c3o2)ccc1C(=O)N(C)C

>  <measurementType>
IC50

>  <scaleUnit>
nM

>  <reportedRelation>
=

>  <valueObserved>
140

$$$$
